Tested on: SK-MEL-28 melanoma
procedure_details: NCI tumour cell line growth inhibition, 48 h
Consider the following compounds; for each one, report its TGI.

[ask] Request the reported TGI associated with CC(C)(C)C1CC[C@H](O)[C@H]([C@@H](O)CC2CC(=O)N(c3ccccc3)C(=O)C2)C1 (stereo not given in full)
[reply] > 100 µM

[ask] TGI for C=CC(=O)N1CCN(c2nc(OC[C@@H]3CCCN3C)nc3c(F)c(-c4nc(N)cc(C)c4C(F)(F)F)c(Cl)cc23)[C@@H](C)C1 ?
[reply] 3.21 µM

[ask] So what's the measured TGI for this one? CCOC(=O)c1sc2c(c1OC(=O)c1ccco1)c(=O)n(-c1ccccc1)c(=S)n2-c1ccccc1
[reply] > 100 µM

[ask] Which value of TGI has been reported for COc1cc(/C=C2\CC3C4CC=C5C[C@@H](N6CCCC6)CC[C@]5(C)C4CC[C@]3(C)[C@H]2OC(C)=O)ccc1OCCCn1ccnc1 (stereo not given in full) in the records?
[reply] > 50 µM

[ask] So what's the measured TGI for this one? Cc1nc2ccccc2c(/C=C/c2ccc(F)cc2)c1C(=O)/C=C/c1ccccc1
[reply] 5.67 µM
